Data origin, for the record: patent US20260285888A1

# reported Concentration of evaluation compound decreased; entries follow
# assay: Study for confirmation of conversion to brexpiprazole in a buffer (stability of the evaluation compounds)
# Assay type: physicochemical
# measurementContext: in buffer; decrease in 60-minute vs 0-minute reaction sample; average of duplicate

Worked cases, answers included:
[
  {
    "compound": "CCC(=O)OC[N+]1(CCCCOc2ccc3ccc(=O)[nH]c3c2)CCN(c2cccc3sccc23)CC1.[I-] [REX 5, reference compound]",
    "result": "0.20 µM"
  },
  {
    "compound": "O=c1ccc2ccc(OCCCC[N+]3(COP(=O)([O-])OCCCO)CCN(c4cccc5sccc45)CC3)cc2[nH]1",
    "result": "-0.11 µM"
  }
]

Per the record, O=C(O)CCCC(=O)OCOP(=O)([O-])OC[N+]1(CCCCOc2ccc3ccc(=O)[nH]c3c2)CCN(c2cccc3sccc23)CC1 has Concentration of evaluation compound decreased of 0.00 µM

The compound listed as CCOC(=O)CCOC(=O)OCOP(=O)([O-])OC[N+]1(CCCCOc2ccc3ccc(=O)[nH]c3c2)CCN(c2cccc3sccc23)CC1 shows Concentration of evaluation compound decreased equal to 0.05 µM

// Concentration of evaluation compound decreased lookup, compound = CC(C)OC(=O)OCOP(=O)([O-])OC[N+]1(CCCCOc2ccc3ccc(=O)[nH]c3c2)CCN(c2cccc3sccc23)CC1 , result: -0.02 µM
